B1: Transcription intermediary factor 1-beta, residues 620 to 671; numbered along this chain, Q13263 (parent)
chain: TLDDSATICRVCQKPGDLVMCNQCEFCFHLDCHLPALQDVPGEEWSCSLCHV

Variants of: B1
ASSAY REMARKS: abundance fitness (aPCA) (normalised: wild type 0, dead -1); higher = more abundant; growth selection in yeast, the domain comes from the species named
RUN CONDITIONS: Homo sapiens
OUTCOME MEASURE: abundance fitness
One number for each entry.

N22C; -0.092
Q13F; 0.042
C21W; -1.14
W45C; -0.283
C50N; -0.505
D39R; -0.222
F28A; -0.098
D31A; -0.257
E25G; -0.27
R10N; 0.094

Provide abundance fitness for all items below, preserving their order.
1. A36I
2. G16K
3. D17F
4. H33M

-0.449
-0.258
-0.099
-0.205

Provide abundance fitness for all items below, preserving their order.
1. Q38F
2. Q13K
3. E44A
4. Q38V
5. E25A
6. L30S

1. -0.39
2. -0.032
3. -0.226
4. -0.132
5. -0.227
6. -0.145

Provide abundance fitness for all items below, preserving their order.
1. V40G
2. W45Q
3. D31R
4. F28H
5. S48I
6. H51S
7. G16W

-0.301
-0.085
-0.324
-0.346
-0.798
0.109
-0.791

Provide abundance fitness for all items below, preserving their order.
1. S5E
2. I8W
3. V11W
4. C50A
5. L18I

1. -0.314
2. -0.348
3. -0.409
4. -0.112
5. -0.371

Attribution: the Human Domainome abundance scans (Beltran et al. 2025)
